target: human vasopressin V1a receptor (Homo sapiens, UniProt P37288); construct: expressed in transfected cells; host or cells: CHO (hV1a cell line), membrane preparation; assay: human vasopressin V1a receptor binding, [3H]PMP-AVP, hV1a (CHO) cell membranes; details: [3H]PMP-AVP 0.2 nM, read-out: BINDING AFFINITY (IC50 (nM))
Sequence (P37288 whole entry): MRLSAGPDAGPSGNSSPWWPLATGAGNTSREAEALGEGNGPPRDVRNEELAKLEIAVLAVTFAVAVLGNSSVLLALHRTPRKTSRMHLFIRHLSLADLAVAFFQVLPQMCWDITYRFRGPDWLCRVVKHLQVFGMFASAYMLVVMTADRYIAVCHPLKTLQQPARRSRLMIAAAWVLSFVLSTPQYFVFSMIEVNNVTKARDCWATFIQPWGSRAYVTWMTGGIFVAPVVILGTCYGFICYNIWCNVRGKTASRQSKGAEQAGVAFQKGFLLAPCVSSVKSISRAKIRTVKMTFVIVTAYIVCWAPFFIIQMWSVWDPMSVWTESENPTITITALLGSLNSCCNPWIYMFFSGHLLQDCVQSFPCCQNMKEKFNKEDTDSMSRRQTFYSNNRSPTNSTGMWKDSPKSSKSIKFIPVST
Rule for this label: condition met means IC50 is less than 20 nM; condition not met means IC50 is at least 20 nM.

Worked examples follow.
Cc1cccc(CNC(=O)[C@H](CC(C)C)N2C(=O)[C@@H](N3C(=O)OC[C@@H]3c3ccccc3)[C@H]2/C=C/c2ccccc2)c1 : condition not met
CCC1(C(C(=O)NCc2ccccc2)N2C(=O)C(N3C(=O)OCC3c3ccccc3)C2C=Cc2ccccc2)OCCO1 (stereo not drawn) : condition not met
CC(C)C[C@@H](C(=O)N1CCC(CCN2CCCCC2)CC1)N1C(=O)[C@@H](N2C(=O)OC[C@@H]2c2ccccc2)[C@H]1/C=C/c1ccccc1 : condition not met
CC(C)(C)C[C@@H](C(=O)OCc1ccccc1)N1C(=O)[C@H](N2C(=O)OC[C@H]2c2ccccc2)[C@@H]1C=Cc1ccco1 : condition not met

Now examine the next entry.
Q: Take the compound CC(C)(C)C(=O)C(C(=O)OCc1cccc(Cl)c1)N1C(=O)C(N2C(=O)OCC2c2ccccc2)C1C=Cc1ccccc1 (mixture of isomers) and say whether its IC50 is less than 20 nM.
A: condition met

====

biological target: human vasopressin V1a receptor (Homo sapiens); construct: expressed in transfected cells; host or cells: CHO (hV1a cell line), membrane preparation; test: human vasopressin V1a receptor binding, [3H]PMP-AVP, hV1a (CHO) cell membranes; conditions: [3H]PMP-AVP 0.2 nM, read-out: BINDING AFFINITY (IC50 (nM))
Readout: IC50 (nM)
One number for each entry, in nM.

For orientation, consider the following solved cases.
CC(C)C[C@@H](C(=O)NCc1cccc(Cl)c1)N1C(=O)[C@@H](N2C(=O)OC[C@@H]2c2ccccc2)[C@H]1/C=C/c1ccccc1 : 40
CC(C)C[C@@H](C(=O)NCc1cccc(C(F)(F)F)c1)N1C(=O)[C@@H](N2C(=O)OC[C@@H]2c2ccccc2)[C@H]1/C=C/c1ccccc1 : 41
CC(C)C[C@@H](C(=O)NCCCN1CCN(C)CC1)N1C(=O)[C@@H](N2C(=O)OC[C@@H]2c2ccccc2)[C@H]1/C=C/c1ccccc1 : 42
CCC1(C(C(=O)N2CCN(CCc3ccccc3)CC2)N2C(=O)[C@@H](N3C(=O)OC[C@@H]3c3ccccc3)[C@H]2/C=C/c2ccccc2)OCCO1 (stereo partly drawn) : 16
CCC1(C(C(=O)NCc2cccc(C(F)(F)F)c2)N2C(=O)[C@@H](N3C(=O)OC[C@@H]3c3ccccc3)[C@H]2/C=C/c2ccccc2)OCCO1 (stereo partly drawn) : 5

Please find the next compound below.
Q: Given the compound COC(=O)C(N1C(=O)[C@H](N2C(=O)OC[C@H]2c2ccccc2)[C@@H]1C=Cc1ccco1)C(O)(C(=O)c1ccccc1)c1ccccc1 (mixture of isomers) , what is its reported IC50?
A: 13

====

target: human vasopressin V1a receptor (Homo sapiens); construct: expressed in transfected cells; host or cells: CHO (hV1a cell line), membrane preparation; test: human vasopressin V1a receptor binding, [3H]PMP-AVP, hV1a (CHO) cell membranes; details: [3H]PMP-AVP 0.2 nM, read-out: BINDING AFFINITY (IC50 (nM))
Readout: IC50 (nM)
One number for each entry, in nM.

For orientation, consider the following solved cases.
CC(C)(C)C(=O)[C@H](C(=O)OCc1ccccc1)N1C(=O)[C@@H](N2C(=O)OC[C@@H]2c2ccccc2)[C@H]1C=Cc1ccco1 [Example 54A] : 2
CC(C)(C)C(=O)[C@@H](C(=O)OCc1ccccc1)N1C(=O)[C@@H](N2C(=O)OC[C@@H]2c2ccccc2)[C@H]1C=Cc1ccco1 [Example 54B] : 9

Items follow; give IC50 for each.
1. CC(C)(C)OC(=O)C(C(=O)Cc1cccc(C(F)(F)F)c1)N1C(=O)C(N2C(=O)OCC2c2ccccc2)C1C=Cc1ccccc1 (mixture of isomers)
2. CC(C)(C)C(O)C(C(=O)N1CCC(CCN2CCCCC2)CC1)N1C(=O)[C@@H](N2C(=O)OC[C@@H]2c2ccccc2)[C@H]1C=Cc1ccccc1 (stereo partly shown)

A:
1. 64
2. 40
